This collection of values is drawn from patent US9181219B2.

Documented pIC50 across a set of molecules
target: TRPV3 (Homo sapiens (Human), UniProt Q8NET8); test: Whole-cell patch clamp of TRPV3 mediated inward current; assay type: cell-based; details: Phase 1 inward current, HEK293/TREx TRPV3 cells, approximate values, read-out: TRPV3 Phase 1 IC50 inward
Sequence (Q8NET8 whole entry, species assumed): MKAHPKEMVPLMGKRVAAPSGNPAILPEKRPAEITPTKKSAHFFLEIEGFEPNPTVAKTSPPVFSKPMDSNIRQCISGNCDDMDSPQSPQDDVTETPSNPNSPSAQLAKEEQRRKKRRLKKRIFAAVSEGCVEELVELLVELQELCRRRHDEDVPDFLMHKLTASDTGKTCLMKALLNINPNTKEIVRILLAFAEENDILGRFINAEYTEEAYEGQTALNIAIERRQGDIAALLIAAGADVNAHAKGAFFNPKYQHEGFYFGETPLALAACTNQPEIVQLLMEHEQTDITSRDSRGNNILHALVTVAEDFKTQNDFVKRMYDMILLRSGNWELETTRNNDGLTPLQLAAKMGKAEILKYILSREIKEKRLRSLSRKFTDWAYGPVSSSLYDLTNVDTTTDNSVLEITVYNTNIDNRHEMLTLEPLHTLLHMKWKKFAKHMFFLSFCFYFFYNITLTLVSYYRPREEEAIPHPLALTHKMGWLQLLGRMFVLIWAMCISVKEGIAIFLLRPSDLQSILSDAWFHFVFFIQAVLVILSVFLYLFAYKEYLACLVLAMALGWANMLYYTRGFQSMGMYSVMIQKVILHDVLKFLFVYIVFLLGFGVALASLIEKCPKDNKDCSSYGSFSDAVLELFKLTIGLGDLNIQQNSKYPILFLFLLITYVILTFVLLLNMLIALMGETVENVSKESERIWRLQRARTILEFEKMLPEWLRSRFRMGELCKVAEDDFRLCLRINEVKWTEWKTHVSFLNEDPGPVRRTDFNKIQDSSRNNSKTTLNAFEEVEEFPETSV
pIC50: −log10 of the molar value.

// worked examples, pIC50 included
>>> df
                                   compound  parameter_measured  result
0       Cc1ccc(SCC(=O)N2CCCc3cccc(C)c32)nc1               pIC50  ≥ 5.30
1   O=C(CSc1ccc(C(F)(F)F)cn1)N1CCCc2ccccc21               pIC50  ≥ 5.30
2  COC(=O)c1cnc(SCC(=O)N2CCCc3cccc(C)c32)c(Cl)c1               pIC50  ≥ 5.30
3       Cc1cccc2c1N(C(=O)CSc1ncccc1C#N)CCC2               pIC50  ≥ 6.00
4     Cc1cccc2c1N(C(=O)CSc1ccc(C#N)cn1)CCC2               pIC50  ≥ 5.00

Data request: Assign pIC50 to the following record: "Cc1cnc(SCC(=O)N2CCCc3cccc(C)c32)cc1C"
Data returned: ≥ 6.70

Data request: Assign pIC50 to the following record: "Cc1cccc2c1N(C(=O)CSc1ccc(Cl)cn1)CCC2"
Data returned: ≥ 6.30

Data request: Assign pIC50 to the following record: "Cc1cccc2c1N(C(=O)CSc1ccc(Br)cn1)CCC2"
Data returned: ≥ 6.30

Data request: Assign pIC50 to the following record: "Cc1cccc2c1N(C(=O)CSc1ncc(C(F)(F)F)cc1Cl)CCC2"
Data returned: ≥ 6.70

* * *

target: NaV1.2 (Homo sapiens (Human), UniProt Q99250); assay: Qpatch selectivity, NaV1.2 inward current; conditions: tested at concentrations up to 30 μM, IC50 estimated
Sequence (Q99250 whole entry): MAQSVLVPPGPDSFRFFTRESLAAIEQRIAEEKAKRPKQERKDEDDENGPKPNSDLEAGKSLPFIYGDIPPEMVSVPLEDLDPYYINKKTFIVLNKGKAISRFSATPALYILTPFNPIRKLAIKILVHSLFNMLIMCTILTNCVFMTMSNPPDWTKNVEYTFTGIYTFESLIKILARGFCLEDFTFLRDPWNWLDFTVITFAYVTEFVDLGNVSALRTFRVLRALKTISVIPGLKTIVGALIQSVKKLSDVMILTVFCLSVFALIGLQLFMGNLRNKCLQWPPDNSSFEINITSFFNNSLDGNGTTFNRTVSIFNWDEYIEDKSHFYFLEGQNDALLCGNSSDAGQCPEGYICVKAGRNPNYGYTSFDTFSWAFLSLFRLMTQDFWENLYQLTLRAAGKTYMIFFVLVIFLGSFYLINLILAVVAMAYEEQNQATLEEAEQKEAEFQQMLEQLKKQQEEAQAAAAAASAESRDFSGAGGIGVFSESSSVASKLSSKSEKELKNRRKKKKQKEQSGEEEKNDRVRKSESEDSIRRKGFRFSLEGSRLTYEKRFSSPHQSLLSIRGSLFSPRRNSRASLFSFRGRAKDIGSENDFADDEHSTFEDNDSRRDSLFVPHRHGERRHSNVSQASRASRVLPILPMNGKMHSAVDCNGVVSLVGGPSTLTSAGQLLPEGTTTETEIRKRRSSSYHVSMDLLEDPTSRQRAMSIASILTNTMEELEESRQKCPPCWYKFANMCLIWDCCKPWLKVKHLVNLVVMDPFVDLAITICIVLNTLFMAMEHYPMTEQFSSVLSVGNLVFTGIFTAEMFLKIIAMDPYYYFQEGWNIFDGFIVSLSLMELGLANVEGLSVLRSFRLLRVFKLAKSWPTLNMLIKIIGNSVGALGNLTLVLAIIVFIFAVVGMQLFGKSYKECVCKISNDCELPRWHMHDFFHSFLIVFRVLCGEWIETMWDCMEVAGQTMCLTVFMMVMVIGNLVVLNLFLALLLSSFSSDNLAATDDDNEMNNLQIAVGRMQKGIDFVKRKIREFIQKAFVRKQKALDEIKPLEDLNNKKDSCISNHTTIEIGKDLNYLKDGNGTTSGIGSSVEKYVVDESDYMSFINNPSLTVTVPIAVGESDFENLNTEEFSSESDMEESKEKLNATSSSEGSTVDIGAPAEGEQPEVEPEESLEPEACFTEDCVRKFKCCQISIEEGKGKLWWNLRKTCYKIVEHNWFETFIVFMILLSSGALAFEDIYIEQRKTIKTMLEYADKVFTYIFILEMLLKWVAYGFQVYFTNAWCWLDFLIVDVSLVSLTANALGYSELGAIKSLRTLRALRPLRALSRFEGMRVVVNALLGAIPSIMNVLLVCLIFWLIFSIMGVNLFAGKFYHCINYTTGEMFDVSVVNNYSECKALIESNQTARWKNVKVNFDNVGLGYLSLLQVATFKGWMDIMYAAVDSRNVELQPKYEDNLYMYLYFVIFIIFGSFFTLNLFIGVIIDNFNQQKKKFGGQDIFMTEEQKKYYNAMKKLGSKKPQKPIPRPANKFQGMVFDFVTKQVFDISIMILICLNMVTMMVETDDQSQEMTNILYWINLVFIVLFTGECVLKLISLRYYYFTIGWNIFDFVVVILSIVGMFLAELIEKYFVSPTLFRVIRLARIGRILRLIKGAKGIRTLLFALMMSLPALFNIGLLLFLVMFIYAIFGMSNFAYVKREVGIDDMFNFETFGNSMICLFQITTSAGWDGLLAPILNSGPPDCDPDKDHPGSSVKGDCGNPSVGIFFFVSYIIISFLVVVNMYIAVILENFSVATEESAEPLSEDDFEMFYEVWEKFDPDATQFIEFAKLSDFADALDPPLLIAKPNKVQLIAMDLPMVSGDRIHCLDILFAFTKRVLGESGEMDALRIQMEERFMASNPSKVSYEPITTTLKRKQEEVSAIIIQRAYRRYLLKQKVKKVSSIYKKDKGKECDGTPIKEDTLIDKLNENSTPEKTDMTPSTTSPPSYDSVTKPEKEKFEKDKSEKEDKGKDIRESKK
parameter-measured: IC50

                                  compound                       experimental_system  parameter_measured   result
0  O=C(CSc1ccc(C(F)(F)F)cn1)N1CCCc2ccccc21  NaV1.2 (Homo sapiens (Human), UniProt Q99250)                IC50  ≥ 30 µM
1       Cc1cccc2c1N(C(=O)CSc1ncccc1Cl)CCC2  NaV1.2 (Homo sapiens (Human), UniProt Q99250)                IC50  ≥ 30 µM

Next, consider the following compound.
Data request: Assign IC50 to the following record: "Cc1cccc2c1N(C(=O)CSc1ccc(C(F)(F)F)cn1)CCC2"
Data returned: ≥ 30 µM

* * *

target: TRPV3 (Homo sapiens (Human)); assay: Whole-cell patch clamp of TRPV3 mediated inward current; assay type: cell-based; conditions: Phase 1 inward current, HEK293/TREx TRPV3 cells, approximate values, read-out: TRPV3 Phase 1 IC50 inward
parameter-measured: IC50

Data request: Assign IC50 to the following record: "Cc1cccc2c1N(C(=O)CSc1ccccn1)CCC2"
Data returned: ≤ 5 µM

Data request: Assign IC50 to the following record: "Cc1ccnc(SCC(=O)N2CCCc3cccc(C)c32)c1C"
Data returned: ≤ 5 µM

Data request: Assign IC50 to the following record: "O=C(CSc1ccc(Cl)cn1)N1CCCc2ccccc21"
Data returned: ≤ 5 µM

* * *

Documented IC50 across a set of compounds
target: TRPV3 (Homo sapiens (Human), UniProt Q8NET8); experiment: Whole-cell patch clamp of TRPV3 mediated inward current; assay type: cell-based; conditions: Phase 1 inward current, HEK293/TREx TRPV3 cells, approximate values, read-out: TRPV3 Phase 1 IC50 inward

// worked examples, IC50 included
In [3]: df
Out[3]:
                                   compound                       experimental_system      result
0        Cc1cccc2c1N(C(=O)CSc1ncccc1Cl)CCC2  TRPV3 (Homo sapiens (Human), UniProt Q8NET8)    ≤ 200 nM
1  Cc1cccc2c1N(C(=O)CSc1ncccc1C(F)(F)F)CCC2  TRPV3 (Homo sapiens (Human), UniProt Q8NET8)   ≤ 1000 nM
2  CCc1cc(C(F)(F)F)cnc1SCC(=O)N1CCCc2cccc(C)c21  TRPV3 (Homo sapiens (Human), UniProt Q8NET8)   ≤ 5000 nM
3    Cc1cccc2c1N(C(=O)CSc1ncc(Cl)cc1Cl)CCC2  TRPV3 (Homo sapiens (Human), UniProt Q8NET8)    ≤ 200 nM
4     Cc1cccc2c1N(C(=O)CSc1cc(C#N)ccn1)CCC2  TRPV3 (Homo sapiens (Human), UniProt Q8NET8)  ≤ 10000 nM

Data request: Assign IC50 to the following record: "Cc1cccc2c1N(C(=O)CSc1ccc(C(F)(F)F)cn1)CCC2"
Data returned: ≤ 500 nM

Data request: Assign IC50 to the following record: "Cc1cccc2c1N(C(=O)CSc1ncc(C(F)(F)F)cc1F)CCC2"
Data returned: ≤ 200 nM

Data request: Assign IC50 to the following record: "COc1cccc2c1N(C(=O)CSc1ncccc1Cl)CCC2"
Data returned: ≤ 500 nM
